biological target: NR1/NR2B (Homo sapiens (Human), UniProt Q13224); assay: Cell assay: FDSS Ca2+ influx inhibition in HEK293 cells expressing NR1/NR2B; conditions: read-out: NR2B NAM IC50; HEK293 cells expressing NR1/NR2B, Ca2+ influx;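 also: Fluo-8 Ca2+ signal read on Hamamatsu FDSS 6000 after glutamate, glycine and Ca2+ challenge following 10 min compound preincubation, end/baseline fluorescence ratio compared with MK801 control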
Sequence (Q13224 27-1484, other chains not shown): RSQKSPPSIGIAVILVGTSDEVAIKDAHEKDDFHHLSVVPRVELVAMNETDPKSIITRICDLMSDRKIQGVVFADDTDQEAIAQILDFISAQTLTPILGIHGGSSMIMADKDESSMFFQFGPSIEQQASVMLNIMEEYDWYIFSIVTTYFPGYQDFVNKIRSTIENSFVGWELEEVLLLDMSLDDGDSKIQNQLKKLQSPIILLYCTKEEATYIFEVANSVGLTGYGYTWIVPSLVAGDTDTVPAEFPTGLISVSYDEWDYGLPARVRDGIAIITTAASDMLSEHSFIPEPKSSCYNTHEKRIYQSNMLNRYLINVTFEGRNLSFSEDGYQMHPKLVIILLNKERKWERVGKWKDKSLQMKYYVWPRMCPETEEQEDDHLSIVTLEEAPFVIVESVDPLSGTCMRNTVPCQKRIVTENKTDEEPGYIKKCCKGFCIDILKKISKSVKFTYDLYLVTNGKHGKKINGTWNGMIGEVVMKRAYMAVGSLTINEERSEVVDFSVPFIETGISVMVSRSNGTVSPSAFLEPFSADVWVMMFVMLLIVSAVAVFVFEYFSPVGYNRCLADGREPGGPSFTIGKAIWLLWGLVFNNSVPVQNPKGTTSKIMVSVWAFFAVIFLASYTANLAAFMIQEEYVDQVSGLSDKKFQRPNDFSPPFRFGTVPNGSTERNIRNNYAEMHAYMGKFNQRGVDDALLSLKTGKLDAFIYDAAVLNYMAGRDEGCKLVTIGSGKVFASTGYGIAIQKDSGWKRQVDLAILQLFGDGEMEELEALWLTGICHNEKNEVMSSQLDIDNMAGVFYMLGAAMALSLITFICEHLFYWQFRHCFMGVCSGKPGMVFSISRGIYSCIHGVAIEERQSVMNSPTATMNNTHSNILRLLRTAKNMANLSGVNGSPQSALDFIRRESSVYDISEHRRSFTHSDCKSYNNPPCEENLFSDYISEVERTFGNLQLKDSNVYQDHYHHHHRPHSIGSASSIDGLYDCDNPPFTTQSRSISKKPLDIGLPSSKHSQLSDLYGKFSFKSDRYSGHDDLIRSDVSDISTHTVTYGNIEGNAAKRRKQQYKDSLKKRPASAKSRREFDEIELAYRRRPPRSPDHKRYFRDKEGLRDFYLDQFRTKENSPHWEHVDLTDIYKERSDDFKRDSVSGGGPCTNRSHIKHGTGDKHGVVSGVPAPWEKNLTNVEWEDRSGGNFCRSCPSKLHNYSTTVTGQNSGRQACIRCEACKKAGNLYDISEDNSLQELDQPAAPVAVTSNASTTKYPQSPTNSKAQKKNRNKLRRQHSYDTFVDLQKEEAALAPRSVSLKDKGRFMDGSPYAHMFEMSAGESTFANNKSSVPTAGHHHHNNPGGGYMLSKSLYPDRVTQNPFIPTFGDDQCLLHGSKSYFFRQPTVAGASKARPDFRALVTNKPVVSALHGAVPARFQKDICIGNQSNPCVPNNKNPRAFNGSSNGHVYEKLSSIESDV
Value Type: IC50 (µM)

{"Structure Smiles String": "O=C(CN1C[C@@H]2C[C@@](O)(Cc3ccccc3)C[C@@H]2C1)c1ccc(-c2ccccc2)cc1", "Meas Value": 10}
{"Structure Smiles String": "O=C(COc1ccc(C(=O)CN2C[C@@H]3C[C@@](O)(Cc4ccc(F)cc4)C[C@@H]3C2)cc1F)c1ccc(O)c(F)c1", "Meas Value": 10}
{"Structure Smiles String": "CC(=O)Nc1ccc(C(=O)CN2C[C@@H]3C[C@@](O)(Cc4ccccc4)C[C@@H]3C2)cc1", "Meas Value": 10}
{"Structure Smiles String": "O=C(CN1C[C@@H]2C[C@@](O)(Cc3ccccc3)C[C@@H]2C1)c1ccc(O)cc1", "Meas Value": 0.0441}
{"Structure Smiles String": "O=C(Nc1cccc(C(F)(F)F)c1)N1C[C@H]2C[C@@H](c3ccccc3)C[C@H]2C1", "Meas Value": 10}
{"Structure Smiles String": "Oc1ccc([C@H](O)CN2C[C@@H]3C[C@](O)(Cc4ccccc4)C[C@@H]3C2)cc1", "Meas Value": 4.71}
{"Structure Smiles String": "O=C(CN1C[C@@H]2C[C@@](O)(Cc3ccccc3)C[C@@H]2C1)c1cccc(-c2cccc(F)c2)c1", "Meas Value": 10}
{"Structure Smiles String": "CS(=O)(=O)Nc1ccc(C(=O)CN2C[C@@H]3C[C@@](O)(Cc4ccccc4)C[C@@H]3C2)nc1", "Meas Value": 10}
{"Structure Smiles String": "O=C(CN1C[C@@H]2C[C@@](O)(Cc3ccc(F)cc3F)C[C@@H]2C1)c1ccc(O)cc1", "Meas Value": 0.0516}
{"Structure Smiles String": "O=C(Nc1cccc(Cl)c1)N1C[C@H]2C[C@@H](c3ccccc3)C[C@H]2C1", "Meas Value": 10}
{"Structure Smiles String": "O=C(CN1C[C@H]2C[C@@H](Cc3ccccc3)C[C@H]2C1)c1ccc(O)c(F)c1", "Meas Value": 0.0412}
{"Structure Smiles String": "Oc1ccc([C@H](O)CN2C[C@@H]3C[C@@](O)(Cc4ccccc4)C[C@@H]3C2)cc1F", "Meas Value": 0.0305}
{"Structure Smiles String": "COc1cccc(NC(=O)N2C[C@H]3C[C@@H](c4ccccc4)C[C@H]3C2)c1", "Meas Value": 10}
{"Structure Smiles String": "O=C(Nc1ccccc1)N1C[C@H]2C[C@@H](c3ccccc3)C[C@H]2C1", "Meas Value": 10}

Attribution: patent US10052306B2
